Sourced from paper PMC9514218

# system: T1, SURP1 (res. 48–110) of human SF3A1, R62E mutant (human, UniProt Q15459 48-110, R62E)
# T1 sequence: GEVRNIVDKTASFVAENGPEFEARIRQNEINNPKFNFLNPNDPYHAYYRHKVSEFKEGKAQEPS
# test description: BLI
Ends that are not written are not given here.
readout type: Kd
Write down the value, and be sure its unit follows.

-- ask Check the records and state Kd for QRPGDPQSAQDKARMDKEYLSLMAELGEAPVPA (peptide, UniProt Q15637 295-327, looked up, also: biotin (position not given here)) [biotin-tagged SF1 S1BRp (res. 295–327)]
-- reply 393 µM
